# Experiment: Cytotoxicity against human Jurkat T cells assessed as appearance of late apoptotic cells at 25 uM after 24 hrs by annexin V-FLUOS/propidium iodide staining-based flow cytometric analysis
# Assay type: cell-based
Decide using Activity: a value greater than or equal to 2% is yes (1), a smaller one is no (0).

Compound | Cat
C[C@]1(CO)[C@H]2CCC(=O)[C@@H](C/C=C3\CCOC3=O)[C@]2(C)CC[C@H]1O | yes (1)

Please check the record C[C@]1(CO)[C@H]2CCC(=O)[C@@H](C/C=C3/SC(=S)NC3=O)[C@]2(C)CC[C@H]1O and state if its Activity is at or above 2%.
yes (1)

Form field: Activity at least 2%? Entry: C=C1CC[C@@H]2[C@](C)(CO)[C@H](O)CC[C@@]2(C)[C@@H]1C/C=C1\C=COC1=O
no (0)

Could you tell me if the measured Activity of C=C1CC[C@@H]2[C@](C)(CO)[C@H](O)CC[C@@]2(C)[C@@H]1C/C=C1/C(=O)OC[C@H]1O [ANDROGRAPHOLIDE] reaches 2% or more?
yes (1)

Given C=C1CC[C@@H]2[C@](C)(CO)[C@H](O)CC[C@@]2(C)[C@@H]1/C=C/C1=CCOC1=O , state whether its Activity is at least 2%.
no (0)

Reported Activity at or above 2%? C=C1CC[C@@H]2[C@](C)(COC(C)=O)[C@H](OC(C)=O)CC[C@@]2(C)[C@@H]1C/C=C1\C=COC1=O
yes (1)

---

Activity reference
# Experiment: Cytotoxicity against human Jurkat T cells assessed as appearance of necrotic cells at 25 uM after 24 hrs by annexin V-FLUOS/propidium iodide staining-based flow cytometric analysis
# Format: cell-based
Form entry: value (%) — number only.

The examples below pair each entry with its known result.
Molecule | Meas value
C=C1CC[C@@H]2[C@](C)(COC(C)=O)[C@H](OC(C)=O)CC[C@@]2(C)[C@@H]1C/C=C1\C=COC1=O | 0.24
C=C1CC[C@@H]2[C@](C)(CO)[C@H](O)CC[C@@]2(C)[C@@H]1/C=C/C1=CCOC1=O | 0.25
C=C1CC[C@@H]2[C@](C)(CO)[C@H](O)CC[C@@]2(C)[C@@H]1C/C=C1\C=COC1=O | 0.3

Check the records and state Activity for C[C@]1(CO)[C@H]2CCC(=O)[C@@H](C/C=C3\CCOC3=O)[C@]2(C)CC[C@H]1O
0.33

Please supply the value of reported Activity for the item C[C@]1(CO)[C@H]2CCC(=O)[C@@H](C/C=C3/SC(=S)NC3=O)[C@]2(C)CC[C@H]1O
1.05

Recall and state the measured Activity for C=C1CC[C@@H]2[C@](C)(CO)[C@H](O)CC[C@@]2(C)[C@@H]1C/C=C1/C(=O)OC[C@H]1O [ANDROGRAPHOLIDE] .
1.39

---

A collection of compounds and their measured IC50
# Measured target: Nuclear factor NF-kappa-B p105 subunit (Homo sapiens)
# Sequence (P19838 1-433 limits assumed): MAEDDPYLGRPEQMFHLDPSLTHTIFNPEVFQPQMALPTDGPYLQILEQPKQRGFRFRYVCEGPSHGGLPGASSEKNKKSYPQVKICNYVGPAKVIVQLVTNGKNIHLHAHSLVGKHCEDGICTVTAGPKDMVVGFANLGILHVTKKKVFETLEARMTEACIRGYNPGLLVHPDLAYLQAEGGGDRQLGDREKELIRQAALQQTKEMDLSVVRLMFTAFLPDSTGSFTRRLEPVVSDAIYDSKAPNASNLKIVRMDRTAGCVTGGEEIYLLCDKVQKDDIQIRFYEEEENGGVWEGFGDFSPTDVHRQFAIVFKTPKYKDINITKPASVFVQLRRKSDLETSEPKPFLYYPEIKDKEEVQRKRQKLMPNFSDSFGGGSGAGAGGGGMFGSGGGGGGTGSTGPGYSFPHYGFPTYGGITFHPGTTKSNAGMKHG
# Experiment: Inhibition of TNF-alpha-stimulated NF-kappaB p50 (unknown origin) expressed in HEK293 cells preincubated for 4 hrs followed by TNF-alpha challenge measured after 24 hrs by secreted alkaline phosphatase reporter assay
// units = µM; emit number, no label

Compound | Measured target | IC50 [µM]
C=C1CC[C@@H]2[C@](C)(CO)[C@H](O)CC[C@@]2(C)[C@@H]1C/C=C1/C(=O)OC[C@H]1O [ANDROGRAPHOLIDE] | Nuclear factor NF-kappa-B p105 subunit (Homo sapiens) | 49.6

Identify the reported IC50 for the following entry. C=C1CC[C@@H]2[C@](C)(COC(C)=O)[C@H](OC(C)=O)CC[C@@]2(C)[C@@H]1C/C=C1\C=COC1=O
11.1

---

# Experiment: Cytotoxicity against human Jurkat T cells assessed as appearance of viable cells at 25 uM after 24 hrs by annexin V-FLUOS/propidium iodide staining-based flow cytometric analysis
# Format: cell-based
# Assay setup: read-out: Activity
A collection of compounds and their measured viability at 24 h, 25 µM
Report the figure in % without appending any unit label.

Compound | viability at 24 h, 25 µM / %
C[C@]1(CO)[C@H]2CCC(=O)[C@@H](C/C=C3\CCOC3=O)[C@]2(C)CC[C@H]1O | 87.9
C=C1CC[C@@H]2[C@](C)(CO)[C@H](O)CC[C@@]2(C)[C@@H]1/C=C/C1=CCOC1=O | 87.5
C=C1CC[C@@H]2[C@](C)(CO)[C@H](O)CC[C@@]2(C)[C@@H]1C/C=C1/C(=O)OC[C@H]1O [ANDROGRAPHOLIDE] | 54.2
C[C@]1(CO)[C@H]2CCC(=O)[C@@H](C/C=C3/SC(=S)NC3=O)[C@]2(C)CC[C@H]1O | 84.1
C=C1CC[C@@H]2[C@](C)(COC(C)=O)[C@H](OC(C)=O)CC[C@@]2(C)[C@@H]1C/C=C1\C=COC1=O | 13.6

Please examine the following record next.
Please indicate viability at 24 h, 25 µM recorded for C=C1CC[C@@H]2[C@](C)(CO)[C@H](O)CC[C@@]2(C)[C@@H]1C/C=C1\C=COC1=O
82.6

---

Recorded Activity values for a group of compounds are listed next.
# Experiment: Cytotoxicity against human Jurkat T cells assessed as appearance of early apoptotic cells at 25 uM after 24 hrs by annexin V-FLUOS/propidium iodide staining-based flow cytometric analysis
# Format: cell-based

Compound | Activity
C=C1CC[C@@H]2[C@](C)(CO)[C@H](O)CC[C@@]2(C)[C@@H]1/C=C/C1=CCOC1=O | 10.89%

Now turn to the next compound.
Supply reported Activity belonging to this compound: C=C1CC[C@@H]2[C@](C)(CO)[C@H](O)CC[C@@]2(C)[C@@H]1C/C=C1\C=COC1=O
15.55%

---

# Experiment: Cytotoxicity against human Jurkat T cells assessed as appearance of early apoptotic cells at 25 uM after 24 hrs by annexin V-FLUOS/propidium iodide staining-based flow cytometric analysis
# Format: cell-based
Listing of recorded Activity by entry.
Kindly answer with a numeric value in %, unit omitted.

Worked set:
Molecule | Output unit | Meas value
C[C@]1(CO)[C@H]2CCC(=O)[C@@H](C/C=C3\CCOC3=O)[C@]2(C)CC[C@H]1O | % | 6.29
C=C1CC[C@@H]2[C@](C)(COC(C)=O)[C@H](OC(C)=O)CC[C@@]2(C)[C@@H]1C/C=C1\C=COC1=O | % | 38.24
C[C@]1(CO)[C@H]2CCC(=O)[C@@H](C/C=C3/SC(=S)NC3=O)[C@]2(C)CC[C@H]1O | % | 6.91

Okay, next one:
For the molecule C=C1CC[C@@H]2[C@](C)(CO)[C@H](O)CC[C@@]2(C)[C@@H]1C/C=C1/C(=O)OC[C@H]1O [ANDROGRAPHOLIDE] , report Activity.
35.3
